testName: in vitro
assaySetup: hepatocytes
Lab note: class by hepatocyte CLint, see bucket A = under 10 µL/min/1e6 cells, bucket B = from 10 µL/min/1e6 cells up to 30 µL/min/1e6 cells, bucket C = 30 µL/min/1e6 cells and over

molecule	groupLabel
Cc1cc(OCC(=O)Nc2ccccc2)c2cc(Br)ccc2n1	bucket C
Nc1c(C(=O)c2cccc(OC[C@@H](O)CO)c2)cnn1-c1ccc(F)cc1	bucket A
CC1=C(C(=O)O)N2C(=O)[C@@H](NC(=O)[C@H](N)c3ccc(O)cc3)[C@H]2SC1	bucket A
COc1ccc(C(=O)NCc2cn(-c3cc(C)nc4ccc(OC)cc34)nn2)cc1	bucket B
O=C(NC1CC1)c1cn(-c2cccc(C#Cc3cccnc3)c2)c2ncccc2c1=O	bucket B
Cc1cccc([C@H](C)c2c[nH]c(=S)[nH]2)c1C	bucket B
Oc1nc2c(O)ccc(CCNCCCCCCOCCc3ccccc3)c2s1	bucket C
C[C@@](C(=O)O[C@H]1C[N+]2(CCCc3cncnc3)CCC1CC2)(c1ccccc1)N1CCCCC1	bucket C
CS(=O)(=O)N1CCc2c(-c3cnc(N)nc3)nc(N3CCOCC3)nc21	bucket A
C[C@H]1Cc2c([nH]c3cc(Cl)c(F)cc23)[C@@]2(N1)C(=O)Nc1ccc(Cl)cc12	bucket A
O=c1[nH]c2c(O)ccc([C@@H](O)CNCCSCCCNCCc3cccc(C(F)(F)F)c3)c2s1	bucket A
CCc1cccc2c1N(C)Cc1cc3c(cc1-2)OCO3	bucket C
CN[C@@H](C)C(=O)N[C@H](C(=O)N[C@H]1C[C@@H]2CC[C@H]1N(CCc1ccccc1)C2)C1CCCCC1	bucket B
CN(C)c1nc(NC[C@H]2CC[C@H](CNS(=O)(=O)c3ccc(Br)cc3OC(F)(F)F)CC2)nc2ccccc12	bucket C
Cc1cnc(Nc2ccc(F)cc2Cl)nc1-c1c[nH]c(C(=O)N[C@H](CO)c2cccc(Cl)c2)c1	bucket B
CCOc1ccc(NC(C)=O)cc1	bucket B
Cc1ccc(CNC(=O)C2CCCN2S(=O)(=O)c2ccc(F)cc2)cc1 (stereo not given)	bucket C
O=C(Nc1nc2ccccc2n1CCCO)c1cccc([N+](=O)[O-])c1	bucket C
Cc1ccc(C[C@@H](C(=O)O)N2CCC(CN3CCC(Oc4ccc(Cl)c(Cl)c4)CC3)CC2)cc1	bucket A
